Where do the numbers come from? From PubChem BioAssay (NCI).

Tested on: EKVX NSCLC
test-summary: NCI-60 one-dose screen, 48 h (100 = growth as untreated, 0 = no growth, -100 = all killed)
measurement-conditions: 10 µM unless noted
Experimental: Growth inhibition of the EKVX human Non-Small Cell Lung tumor cell line is measured as a screen for anti-cancer activity. Cells are grown in 96 well plates and exposed to the test compound for 48 hours. Compounds are tested at a single concentration, which is 10^-5 M for most compounds. The reported endpoint is percent growth (GI% or GIPRCNT), where numbers from 0 - 100% represent growth inhibition, and numbers from -100% - 0 represent cell death. […]
About 83,000 compounds went through this panel and 20% of them were active in at least one assay; those are over-represented in the sample as a whole.
Examples of compounds with documented growth follow.
API: value field is a number in %; no unit string.

Previously resolved entries follow.
compound	value
Cc1cc(Cl)ccc1Nc1nc(C(F)(F)F)ccc1C(=O)N/N=C/c1ccc(F)cc1	16.7
CSc1ncnc2c1ncn2C1CCCO1 (stereo not given)	95.6
CCOC(=O)C(CC)n1c(=O)c2cc(OC)c(OC)cc2c2cnc3[nH]ccc3c21 (stereo not given)	76.4

O=C1CCc2c(sc3[nH]c(=S)n(Cc4ccccc4)c(=O)c23)C1 has a reported growth of 13.9

CCOC(=O)c1c2ncccc2n2c(=O)n(-c3ccc(Cl)cc3)nnc12 has a reported growth of 68.7

CC(C)Oc1nc2c(c(=O)n(C)c(=O)n2C)n1C has a reported growth of 103

CCCCCCCCCCCCCC(=O)C(C)N (stereo not given) has a reported growth of 5.65

Nc1cc(-c2nc3sccn3c2-c2ccnc(NCCCNS(=O)(=O)c3ccc(F)cc3)n2)ccc1F has a reported growth of 58.3

C=C1CCC2C3(C)COC(c4ccccc4Br)OC3CCC2(C)C1C/C=C1/C(=O)OCC1OC(C)=O (stereo not given) has a reported growth of -3.86

CC[C@H](Nc1cc(C)nc(N)n1)c1nc2cccc(NCc3ccc(C(=O)NO)cc3)c2c(=O)n1-c1ccccc1 has a reported growth of 64.3

O=[N+]([O-])c1cccc(-c2nc3sccn3c2-c2ccnc(NCCNS(=O)(=O)c3ccc(C(F)(F)F)cc3)n2)c1 has a reported growth of 39.5

COCCOc1ccc(-c2nc3ccc(-c4nc5ccc(N6CCN(C)CC6)cc5[nH]4)cc3[nH]2)cc1 has a reported growth of 67.9

Cc1ccc(/C=C2\Oc3cc(OCC(=O)c4ccc(Cl)cc4)ccc3C2=O)cc1 has a reported growth of 107

S=c1[nH]nc(CSc2ncnc3c2c(-c2ccccc2)cn3-c2ccc(Cl)cc2)o1 has a reported growth of 92

Cc1ccc(N)cc1F has a reported growth of 98

O=C1/C(=C/c2ccccc2)CN(CCC(=O)N2C/C(=C\c3ccccc3)C(=O)/C(=C/c3ccccc3)C2)C/C1=C\c1ccccc1 has a reported growth of 63.6

* * *

System: SN12C renal
test-summary: NCI-60 one-dose screen, 48 h (100 = growth as untreated, 0 = no growth, -100 = all killed)
measurement-conditions: 10 µM unless noted
About 83,000 compounds went through this panel and 20% of them were active in at least one assay; those are over-represented in the sample as a whole.
Would you mind labelling by growth? At or over 60% is label 1, under is label 0.

Below are worked cases with known answers.
molecule	qualitative-label
CCN(CC)CCCC(C)NCCCNc1cccc2cccnc12 (stereo unspecified)	label 1
Cn1c2c(Cl)c(Cl)ccc2c2ccn3c(=O)c4ccccc4nc3c21	label 1
COc1ccc2nc3cc(Cl)ccc3c(N3CCN(c4nccc(Nc5ccccc5)n4)CC3)c2c1	label 1

Asked: Given O=C(/C=C/c1cc2ccccc2[nH]c1=O)/C=C/c1cc2ccccc2[nH]c1=O , state whether its growth is at least 60%.
Given back: label 0

Asked: Given COc1ccc(CN2C(=O)/C(=C\c3cc(OC)c(OC)c(OC)c3)c3cc(OC)ccc32)cc1 , state whether its growth is at least 60%.
Given back: label 0

Asked: Given CC[C@H](CO)Nc1nc(NCc2ccccc2)n2ncc(C(C)C)c2n1 , state whether its growth is at least 60%.
Given back: label 0

Asked: Given CCN(C(=O)CN1CCN(c2cc3c(cc2F)c(=O)c(C(=O)O)cn3CC)CC1)c1nc(-c2ccccc2)cs1 , state whether its growth is at least 60%.
Given back: label 0

Asked: Given CCCCCC(=O)N(CCCC)CCCC , state whether its growth is at least 60%.
Given back: label 1

Asked: Given COc1cc(OC)c(/C=C/c2cc[n+](C)c3ccccc23)c(OC)c1 , state whether its growth is at least 60%.
Given back: label 0

Asked: Given O=C1CC(c2nc3ccccc3[nH]2)CN1C1CCCCC1 (stereo unspecified) , state whether its growth is at least 60%.
Given back: label 1
